System: IM9 cells
protocol_text: Cellular cytotoxicity on human myeloma cell line IM9 (MTS)
cond: read-out: IC50, cellular cytotoxicity, free maytansine derivative
measurement_type: IC50 (nM)
A number alone suffices; assume nM.

Would you kindly share the measured IC50 for COc1cc2cc(c1Cl)N(C)C(=O)C[C@H](OC(=O)[C@H](C)N(C)C(=O)CCSSC)[C@]1(C)O[C@H]1[C@H](C)[C@@H]1C[C@@](O)(NC(=O)O1)[C@H](OC)/C=C/C=C(\C)C2 ? 10
